reportedMetric: melting point

Below, 10 compounds whose answers are already recorded.
c1ccc2nc(COc3ccc(Cc4nnn[nH]4)cc3)ccc2c1 :: 173 to 175 °C
CCN1CCN(Cc2cc(-c3ccc4c(Nc5ccc(Cl)cc5Cl)c(C#N)cnc4c3)cs2)CC1 :: 182 to 184 °C
c1ncn(CCc2ccc3c(c2)-c2[nH]nc(-c4ccsc4)c2C3)n1 :: 167 to 168 °C
O=C(Nc1ccc2cc(CN3CCCCC3)ccc2c1)c1ccc(-c2ccc(Cl)cc2)nc1 :: 228 to 229 °C
O=C1Nc2ccc(Cl)cc2C1(Cl)c1cccc2c1OCO2 (stereo not given) :: 241 °C
CC1=C(CNC(=O)NC(C)C)c2cc(F)ccc2/C1=C\c1ccc(S(C)(=O)=O)cc1 :: 217 °C
Cc1cnc(NC2CCC(CCN3CCN(c4ccccc4)CC3)CC2)nc1 (stereo not given) :: 190 °C
O=C(Cc1ccc(OCc2ccccc2F)cc1)NC1(C(=O)O)Cc2ccc(-c3ccc(Cl)cc3)cc2C1 (stereo not given) :: 232 to 233 °C
CCCC(c1ccccc1)c1ccc(-c2cnn3c(O)ncnc23)cc1 (stereo not given) :: 280 to 285 °C
Nc1nc(Cl)cnc1-c1cc(Cl)cc(Cl)c1Cl :: 211 to 214 °C

Input line: Given the compound "CCOC(=O)c1oc2cccc(COC)c2c1C" , what is its reported melting point?
Output line: 45 to 47 °C
